The measurements presented in this section are drawn from the supplement of paper PMC8253809.

Test system: HGGX6 (H3.3 G34R paediatric high-grade glioma line)
method_description: growth inhibition (% activity, log2 RLU normalised to DMSO / staurosporine); higher = more growth inhibition
recorded_conditions: 33 µM
Listing of recorded growth inhibition by entry.
assay_endpoint: growth inhibition (%)

{"columns": ["molecule", "target_or_system", "readout_value"],
 "data": [
  ["C[C@]12CCC(=O)C=C1C=C[C@@H]1[C@@H]2CC[C@@]2(C)[C@H]1CC[C@@]2(O)CCC(=O)O", "HGGX6", -0.966],
  ["CCC1(C)CC(=O)NC(=O)C1", "HGGX6", -4.73],
  ["O=P1(NCCCl)OCCCN1CCCl (stereo unspecified)", "HGGX6", -0.383],
  ["O=c1[nH]c2ccccc2n1CCCN1CCC(n2c(=O)[nH]c3cc(Cl)ccc32)CC1", "HGGX6", 1.12],
  ["Cc1cc(C(C#N)c2ccc(Cl)cc2)c(Cl)cc1NC(=O)c1cc(I)cc(I)c1O (stereo unspecified)", "HGGX6", -4.74],
  ["C[N+]1(C)CCCC(OC(=O)C(O)(c2ccccc2)c2ccccc2)C1 (stereo unspecified)", "HGGX6", -1.01],
  ["C[C@]12CC[C@H]3[C@@H](CC[C@@]45O[C@@H]4C(O)=C(C#N)C[C@]35C)[C@@H]1CC[C@@H]2O", "HGGX6", 0.2],
  ["Cc1cccc(Cc2c[nH]cn2)c1C", "HGGX6", 2.59],
  ["CN1c2ccccc2C(NCCCCCCC(=O)O)c2ccc(Cl)cc2S1(=O)=O (stereo unspecified)", "HGGX6", 0.961],
  ["CC[C@@H](C(N)=O)N1CCCC1=O", "HGGX6", -3.23],
  ["C[N+]1(C)[C@@H]2C[C@@H](OC(=O)[C@H](CO)c3ccccc3)C[C@H]1[C@@H]1O[C@@H]12", "HGGX6", 2.07]
]}

* * *

Test system: DIPGX29 (H3.3 K27M diffuse intrinsic pontine glioma line)
method_description: growth inhibition (% activity, log2 RLU normalised to DMSO / staurosporine); higher = more growth inhibition
recorded_conditions: 33 µM
Listing of recorded growth inhibition by entry.

{"columns": ["compound", "display_unit", "growth inhibition"],
 "data": [
  ["CN(C)C(=O)Oc1ccc[n+](C)c1", "%", 0.471],
  ["O=C(O)c1nn(Cc2ccc(Cl)cc2Cl)c2ccccc12", "%", 1.18],
  ["C=C1C[C@@H]2[C@H](CC[C@]3(C)C(=O)CC[C@@H]23)[C@@]2(C)C=CC(=O)C=C12", "%", 2.35],
  ["C[C@@H]1O[C@@H](O[C@H]2C[C@@H](O)[C@]3(CO)[C@H]4[C@H](O)C[C@]5(C)[C@@H](C6=CC(=O)OC6)CC[C@]5(O)[C@@H]4CC[C@]3(O)C2)[C@H](O)[C@H](O)[C@H]1O", "%", 41.5],
  ["CC(C)c1c(CN(C)C(C)Cc2ccccc2)n(C)n(-c2ccccc2)c1=O (centres undefined)", "%", 2.25],
  ["CN1c2ccccc2C(NCCCCCCC(=O)O)c2ccc(Cl)cc2S1(=O)=O (centres undefined)", "%", -1.12],
  ["CCN(C)C(=O)Oc1cccc([C@H](C)N(C)C)c1", "%", -0.955],
  ["C[C@@H]1CC[C@H]2[C@@H](C)C(=O)O[C@@H]3O[C@@]4(C)CC[C@@H]1[C@]32OO4", "%", 3.47],
  ["CC(=O)Nc1cc([As](=O)(O)O)ccc1O", "%", -0.747]
]}
